List of pIC50 values.
Molecular target: ATP-dependent translocase ABCB1 (Homo sapiens, UniProt P08183)
Sequence (P08183 whole entry): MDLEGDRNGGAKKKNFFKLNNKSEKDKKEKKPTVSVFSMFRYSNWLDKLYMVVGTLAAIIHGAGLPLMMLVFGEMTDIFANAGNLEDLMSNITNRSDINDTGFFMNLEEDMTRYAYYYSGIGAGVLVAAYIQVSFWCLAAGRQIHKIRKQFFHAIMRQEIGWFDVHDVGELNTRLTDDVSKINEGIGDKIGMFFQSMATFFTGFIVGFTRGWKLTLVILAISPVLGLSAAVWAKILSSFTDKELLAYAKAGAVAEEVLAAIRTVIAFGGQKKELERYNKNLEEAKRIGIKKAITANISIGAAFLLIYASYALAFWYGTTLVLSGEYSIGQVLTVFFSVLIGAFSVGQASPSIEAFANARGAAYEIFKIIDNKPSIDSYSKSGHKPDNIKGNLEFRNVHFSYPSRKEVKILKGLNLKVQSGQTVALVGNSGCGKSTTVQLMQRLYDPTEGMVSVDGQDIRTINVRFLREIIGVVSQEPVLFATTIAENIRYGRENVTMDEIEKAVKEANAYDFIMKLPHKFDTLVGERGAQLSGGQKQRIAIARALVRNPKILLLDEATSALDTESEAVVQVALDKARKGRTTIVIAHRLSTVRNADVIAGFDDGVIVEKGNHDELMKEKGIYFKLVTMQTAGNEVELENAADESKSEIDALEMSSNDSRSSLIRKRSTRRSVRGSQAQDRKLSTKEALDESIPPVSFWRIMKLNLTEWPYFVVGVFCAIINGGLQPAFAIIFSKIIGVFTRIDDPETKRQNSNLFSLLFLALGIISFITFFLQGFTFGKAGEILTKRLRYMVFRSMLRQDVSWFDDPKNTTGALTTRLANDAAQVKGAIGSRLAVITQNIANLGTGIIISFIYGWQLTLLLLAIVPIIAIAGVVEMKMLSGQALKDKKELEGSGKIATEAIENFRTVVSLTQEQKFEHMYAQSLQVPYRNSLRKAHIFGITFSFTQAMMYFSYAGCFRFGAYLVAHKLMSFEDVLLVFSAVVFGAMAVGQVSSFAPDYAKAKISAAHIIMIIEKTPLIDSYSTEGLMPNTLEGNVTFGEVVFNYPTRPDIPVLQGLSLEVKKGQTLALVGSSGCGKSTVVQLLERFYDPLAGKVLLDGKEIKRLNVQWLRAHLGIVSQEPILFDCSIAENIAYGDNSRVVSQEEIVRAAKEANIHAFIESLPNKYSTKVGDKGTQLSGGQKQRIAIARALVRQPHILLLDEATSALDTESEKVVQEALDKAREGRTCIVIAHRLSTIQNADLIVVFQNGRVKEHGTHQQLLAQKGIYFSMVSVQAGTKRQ
Assay: Inhibition of human MDR1 expressed in mouse L5178 cells assessed as increase in intracellular accumulation of rhodamine 123 by FACSCalibur flow cytometry
For clarity, pIC50 is expressed as the negative log10 of concentration in mol/L.

Could you tell me which pIC50 is on file for COCCOCO[C@@H]1/C=C\COC(=O)/C=C/[C@@H](OC)[C@@H]2C[C@@H](OC(=O)c3ccccc3)C(C)=C1C2(C)C ?
5.14

Could you tell me which pIC50 is on file for COCCOCO[C@@H]1/C=C\C(OC(C)=O)C(OC(C)=O)/C=C/[C@@H](OC)[C@@H]2CCC(C)=C1C2(C)C (some centres not stated) ?
4.62
